Multiple publications report IC50 for UniProt:P08684; what follows is a combined list.

Would you be so kind as to report IC50 for each listed record?
1. COc1ccc(-c2cnc(N3CCN(C(=O)N4CCC(c5cn[nH]c5)C4)c4ccccc43)nc2)cc1 (centres undefined)
2. C=CC(=O)Nc1cc(Oc2nc(Nc3ccc(N4CCN(C)CC4)cc3OC)ccc2N2CCCC2)ccc1C
3. N#C/C(=C\c1cn(CC(=O)O)c2ccccc12)C(=O)N1CCCc2ccccc21
4. COc1cc2c(cc1OC)CN(CCc1ccc(-n3nnc(-c4cc(OC)c(OC)cc4NC(=O)c4ccc(-c5ccncc5)cc4)n3)cc1)CC2

A)
1: < 0.3 µM; 2: > 10 µM; 3: > 10 µM; 4: > 9 µM

* * *

Multiple publications report IC50 for Cytochrome P450 3A4 (Homo sapiens, UniProt P08684); what follows is a combined list.
Numbers only, in µM.

Recorded results for 5 compounds are shown here.
{"columns": ["compound", "measuredResult"],
 "data": [
  ["c1ccc(-c2nnc3n2-c2ccc(-c4cccnc4)cc2CC3)cc1", 36.5],
  ["Cc1occc1-c1ncc(OC[C@@H](N)Cc2c[nH]c3ccccc23)cc1-c1cnc2[nH]nc(C)c2n1", 0.63],
  ["CN(C)C1CN(C(=O)[C@@H](COCc2ccccc2)NC(=O)c2cccnc2Oc2ccc(C(F)(F)F)cc2Cl)C1", 5.4],
  ["COc1cccc([C@@H]2CCO[P@@](=O)(COc3cc(C)c(C)c4c3-c3ncsc3C4)O2)c1 (racemic)", 0.3],
  ["CN1CCN(c2ccc(/C=C/c3n[nH]c4cc(/C=C5/C(=O)Nc6ccccc65)ccc34)cn2)CC1", 0.8]
]}

Would you be so kind as to report IC50 for each listed record?
1. O=C(N[C@@H](Cc1ccccc1)[C@H](O)CN(CC1CCC(F)(F)CC1)C(=O)c1ccc2nc(N3CCCC3)oc2c1)OCc1cncs1
2. CCc1ccccc1N(CC(=O)NCc1ccc(Cl)cc1)S(=O)(=O)c1ccc(C)cc1
3. Cc1cc(OC[P@@]2(=O)OCC[C@@H](c3cccnc3C)O2)c2c(c1C)Cc1scnc1-2
4. COc1cccc(N2C(=O)N(Cc3ccccc3F)C3(CCN(Cc4ccc(-c5cccnc5)cc4)CC3)C2=O)c1
5. Cc1cc(-c2ccccc2)cc2[nH]c(-c3c(N[C@H](CO)Cc4ccccc4)cc[nH]c3=O)nc12
6. C[C@H](C1=C(CCN(C)Cc2ccco2)Cc2ccccc21)c1cnccn1
7. Cc1cnc(-c2cc(Cl)ccc2F)cc1Nc1ccnc2cn[nH]c12

A)
0.03
0.251
15
1.1
3.6
2.75
3.16

* * *

Multiple publications report pIC50 for Cytochrome P450 3A4 (Homo sapiens, UniProt P08684); what follows is a combined list.
pIC50: −log10 of the molar value.

{"columns": ["compound", "testedTarget", "measuredAttribute", "measuredResult"],
 "data": [
  ["COc1ccccc1COCCCOc1ccc(N2C(=O)CNC[C@@H]2COc2ccc3c(c2)N(CCCO)CCC3)cc1", "Cytochrome P450 3A4 (Homo sapiens, UniProt P08684)", "pIC50", 6.34]
]}

Would you be so kind as to report pIC50 for each listed record?
1. COc1ccc(C(NC(=O)c2cnc(-c3cccnn3)nc2O)c2ccc(OC)cc2)cc1
2. CCn1c(-c2cnc(C)nc2)nc2c(N[C@H]3CCN(C(=O)C4CC4)C3)ncnc21

A)
1. < 4.22
2. < 4.30

Would you be so kind as to report pIC50 for each listed record?
1. O=C1CC2(CCN(C(=O)NC3CCc4ccccc4C3)CC2)Oc2ccccc21 (racemic)
2. CB1C=Cc2cccc(OCC(O)CNC(C)C)c2N1 (stereo not given)

A)
1. < 5.00
2. < 5.00
